The entries below come with measured Activity values attached.
- measurement-target: Muscarinic acetylcholine receptor M1 (Rattus norvegicus) (UniProt P08482)
- Sequence (whole entry): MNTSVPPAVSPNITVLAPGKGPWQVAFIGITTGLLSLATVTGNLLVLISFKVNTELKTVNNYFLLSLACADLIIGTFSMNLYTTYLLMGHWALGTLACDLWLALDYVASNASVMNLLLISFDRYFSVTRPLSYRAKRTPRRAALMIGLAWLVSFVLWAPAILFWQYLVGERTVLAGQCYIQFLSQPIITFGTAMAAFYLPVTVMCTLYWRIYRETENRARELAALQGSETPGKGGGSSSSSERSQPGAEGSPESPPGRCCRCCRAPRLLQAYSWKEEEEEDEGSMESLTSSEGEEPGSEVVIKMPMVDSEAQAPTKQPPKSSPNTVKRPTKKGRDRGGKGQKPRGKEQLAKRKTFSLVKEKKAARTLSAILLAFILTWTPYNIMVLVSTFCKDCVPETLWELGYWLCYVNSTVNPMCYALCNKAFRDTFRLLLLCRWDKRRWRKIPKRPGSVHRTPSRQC
- run-description: Allosteric modulation at rat M1 receptor expressed in CHO cells by calcium mobilization assay relative to acetylcholine
- Type: functional, cell-based
- Design: concentration or dose not given beside the values
assay-readout: Activity

structure_string=Cc1cc(NC(=O)CS(=O)(=O)c2cn(Cc3cccc(Br)c3)c3cc(F)cc(F)c23)no1 observed_result=103%
structure_string=Cc1cc(NC(=O)CS(=O)(=O)c2cn(Cc3cccc(-c4cnn(C)c4)c3)c3ccccc23)no1 observed_result=102%
structure_string=Cc1cc(NC(=O)CS(=O)(=O)c2cn(Cc3cc(-c4cn[nH]c4)ccc3F)c3ccccc23)no1 observed_result=96%
structure_string=Cc1cc(NC(=O)CS(=O)(=O)c2cn(Cc3cc(Br)ccc3F)c3ccccc23)no1 observed_result=84%
structure_string=Cc1cc(NC(=O)CS(=O)(=O)c2cn(Cc3cccc(Br)c3)c3ccccc23)no1 observed_result=91%

###

- measurement-target: Muscarinic acetylcholine receptor M2 (Homo sapiens, UniProt P08172)
- Sequence (P08172 whole entry): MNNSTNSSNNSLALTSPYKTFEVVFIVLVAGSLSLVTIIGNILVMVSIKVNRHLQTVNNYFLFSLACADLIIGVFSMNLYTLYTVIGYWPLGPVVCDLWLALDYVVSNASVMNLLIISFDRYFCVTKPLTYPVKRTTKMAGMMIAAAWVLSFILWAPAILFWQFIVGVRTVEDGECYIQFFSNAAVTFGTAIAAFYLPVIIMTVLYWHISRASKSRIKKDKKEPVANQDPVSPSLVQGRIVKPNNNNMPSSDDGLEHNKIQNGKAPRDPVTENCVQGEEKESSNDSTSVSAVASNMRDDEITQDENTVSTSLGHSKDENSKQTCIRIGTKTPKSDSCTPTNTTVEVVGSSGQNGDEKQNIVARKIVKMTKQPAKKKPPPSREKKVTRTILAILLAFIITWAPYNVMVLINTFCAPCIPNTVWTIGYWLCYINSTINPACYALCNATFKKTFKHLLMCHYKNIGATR
- run-description: Agonist activity at M2 receptor
- Type: functional
pEC50: −log10 of the molar value.
assay-readout: pEC50

structure_string=Cc1cc(NC(=O)CS(=O)(=O)c2cn(Cc3ccccc3Cl)c3ccccc23)no1 measurement_target="Muscarinic acetylcholine receptor M2 (Homo sapiens, UniProt P08172)" assay_readout=pEC50 observed_result="< 4.52"

###

- measurement-target: Muscarinic acetylcholine receptor M1 (Rattus norvegicus) (UniProt P08482)
- Sequence (whole entry): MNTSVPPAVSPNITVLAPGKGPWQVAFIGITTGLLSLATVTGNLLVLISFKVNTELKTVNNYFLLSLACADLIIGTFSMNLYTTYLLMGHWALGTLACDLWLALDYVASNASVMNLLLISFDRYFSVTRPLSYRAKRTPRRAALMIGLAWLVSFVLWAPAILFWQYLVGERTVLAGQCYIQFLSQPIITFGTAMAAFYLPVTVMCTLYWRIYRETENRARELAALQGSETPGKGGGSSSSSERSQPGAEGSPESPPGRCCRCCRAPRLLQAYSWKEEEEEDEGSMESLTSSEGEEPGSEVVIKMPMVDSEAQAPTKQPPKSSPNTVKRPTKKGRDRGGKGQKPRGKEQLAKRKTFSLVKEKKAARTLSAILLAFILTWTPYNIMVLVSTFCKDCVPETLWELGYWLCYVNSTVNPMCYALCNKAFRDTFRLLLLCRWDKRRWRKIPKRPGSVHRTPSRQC
- run-description: Allosteric modulation at rat M1 receptor expressed in CHO cells by calcium mobilization assay relative to acetylcholine
- Assay type: functional, cell-based
- Set-up: concentration or dose not given beside the values
The entries below come with measured Activity values attached.
assay-readout: Activity

structure_string=COc1cccc(Cn2cc(S(=O)(=O)CC(=O)Nc3cc(C)on3)c3ccccc32)c1 assay_readout=Activity observed_result=79%
structure_string=Cc1cc(NC(=O)CS(=O)(=O)c2cn(Cc3cccc(-c4cn[nH]c4)c3F)c3ccccc23)no1 assay_readout=Activity observed_result=103%
structure_string=Cc1cc(NC(=O)CS(=O)(=O)c2cn(Cc3cccc(-c4cn[nH]c4)c3)c3cc(F)cc(F)c23)no1 assay_readout=Activity observed_result=102%
structure_string=Cc1cc(NC(=O)CS(=O)(=O)c2cn(Cc3cccc(Cl)c3F)c3ccccc23)no1 assay_readout=Activity observed_result=56%
structure_string=Cc1cc(NC(=O)CS(=O)(=O)c2cn(Cc3cccc(Cl)c3)c3ccccc23)no1 assay_readout=Activity observed_result=96%
structure_string=Cc1cc(NC(=O)CS(=O)(=O)c2cn(Cc3cccc(-c4cn[nH]c4)c3)c3ccccc23)no1 assay_readout=Activity observed_result=90%

###

The entries below come with measured Kp at 1 h values attached.
- run-description: Ratio of AUC in brain to plasma in rat at 10 mg/kg, ip after 1 hr
- Assay type: ADME, organism-based
- Parameters: dose 10 mg/kg, route intraperitoneal
- test-settings: brain and plasma
assay-readout: Kp at 1 h

structure_string=Cc1cc(NC(=O)CS(=O)(=O)c2cn(Cc3cc(Br)ccc3F)c3ccccc23)no1 assay_readout="Kp at 1 h" observed_result=0.32
structure_string=Cn1cc(-c2ccc(CN3C(=O)C(=O)c4ccccc43)c(F)c2)cn1 assay_readout="Kp at 1 h" observed_result=0.1

###

- measurement-target: Muscarinic acetylcholine receptor M1 (Rattus norvegicus)
- run-description: Allosteric modulation at rat M1 receptor expressed in CHO cells by calcium mobilization assay
- Type: functional, cell-based
pEC50: −log10 of the molar value.
assay-readout: pEC50

compound="CCC(C)n1cc(-c2cccc(Cn3cc(S(=O)(=O)CC(=O)Nc4cc(C)on4)c4ccccc43)c2)cn1 (stereo not given)" measurement_target="Muscarinic acetylcholine receptor M1 (Rattus norvegicus)" assay_readout=pEC50 observed_result="< 5.00"
compound=Cc1cc(NC(=O)CS(=O)(=O)c2cn(Cc3cccc(Br)c3F)c3ccccc23)no1 measurement_target="Muscarinic acetylcholine receptor M1 (Rattus norvegicus)" assay_readout=pEC50 observed_result="< 5.00"
compound=Cc1cc(NC(=O)CS(=O)(=O)c2cn(Cc3ccc(C(F)(F)F)cc3)c3ccccc23)no1 measurement_target="Muscarinic acetylcholine receptor M1 (Rattus norvegicus)" assay_readout=pEC50 observed_result="< 5.00"
compound=Cc1cc(NC(=O)CS(=O)(=O)c2cn(Cc3ccccc3F)c3ccccc23)no1 measurement_target="Muscarinic acetylcholine receptor M1 (Rattus norvegicus)" assay_readout=pEC50 observed_result="< 5.00"
compound=Cc1cc(NC(=O)CS(=O)(=O)c2cn(Cc3cccc(-c4cn[nH]c4)c3F)c3ccccc23)no1 measurement_target="Muscarinic acetylcholine receptor M1 (Rattus norvegicus)" assay_readout=pEC50 observed_result=5.36

###

The entries below come with measured EC50 values attached.
- measurement-target: Muscarinic acetylcholine receptor M1 (Rattus norvegicus)
- run-description: Allosteric modulation at rat M1 receptor expressed in CHO cells by calcium mobilization assay
assay-readout: EC50

structure_string=Cc1cc(NC(=O)CS(=O)(=O)c2cn(Cc3cccc(-c4cnn(C)c4)c3)c3ccccc23)no1 assay_readout=EC50 observed_result="3.21 µM"
structure_string=Cc1cc(NC(=O)CS(=O)(=O)c2cn(Cc3ccc(F)c(Cl)c3)c3ccccc23)no1 assay_readout=EC50 observed_result="> 10 µM"
structure_string=Cc1cc(NC(=O)CS(=O)(=O)c2cn(Cc3cccc(-c4ccccc4)c3)c3ccccc23)no1 assay_readout=EC50 observed_result="> 10 µM"

###

- measurement-target: Muscarinic acetylcholine receptor M5 (Homo sapiens)
- Sequence (P08912 whole entry): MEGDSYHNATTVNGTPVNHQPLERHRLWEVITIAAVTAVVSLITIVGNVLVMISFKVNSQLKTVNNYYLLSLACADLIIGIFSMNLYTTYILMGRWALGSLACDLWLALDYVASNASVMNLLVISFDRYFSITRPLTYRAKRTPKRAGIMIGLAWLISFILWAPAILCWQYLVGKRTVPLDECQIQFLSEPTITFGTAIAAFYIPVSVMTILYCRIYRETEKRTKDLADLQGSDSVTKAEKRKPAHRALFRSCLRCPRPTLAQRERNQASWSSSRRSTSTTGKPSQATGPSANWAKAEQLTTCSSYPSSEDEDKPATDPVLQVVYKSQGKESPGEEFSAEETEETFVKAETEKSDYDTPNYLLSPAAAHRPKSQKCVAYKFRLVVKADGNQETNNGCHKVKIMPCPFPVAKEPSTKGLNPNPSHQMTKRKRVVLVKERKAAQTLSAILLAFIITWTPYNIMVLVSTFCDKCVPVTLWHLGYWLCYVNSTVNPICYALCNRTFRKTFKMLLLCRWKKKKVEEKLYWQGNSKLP
- run-description: Agonist activity at M5 receptor
assay-readout: EC50

structure_string=Cc1cc(NC(=O)CS(=O)(=O)c2cn(Cc3ccccc3Cl)c3ccccc23)no1 observed_result="> 30 µM"

###

- measurement-target: Muscarinic acetylcholine receptor M4 (Homo sapiens)
- Sequence (P08173 whole entry): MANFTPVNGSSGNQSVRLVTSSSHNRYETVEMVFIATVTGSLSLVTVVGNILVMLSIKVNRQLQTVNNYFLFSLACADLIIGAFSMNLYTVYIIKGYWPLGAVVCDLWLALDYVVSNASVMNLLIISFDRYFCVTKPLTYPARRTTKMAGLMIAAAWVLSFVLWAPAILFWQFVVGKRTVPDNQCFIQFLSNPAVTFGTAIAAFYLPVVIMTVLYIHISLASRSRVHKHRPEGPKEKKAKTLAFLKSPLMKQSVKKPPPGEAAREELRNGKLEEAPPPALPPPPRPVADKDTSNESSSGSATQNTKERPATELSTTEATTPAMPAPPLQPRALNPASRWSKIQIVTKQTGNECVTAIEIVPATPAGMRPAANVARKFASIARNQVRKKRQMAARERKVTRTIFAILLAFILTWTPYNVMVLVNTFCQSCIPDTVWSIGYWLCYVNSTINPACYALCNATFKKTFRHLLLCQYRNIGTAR
- run-description: Agonist activity at M4 receptor
- Type: functional
pEC50: −log10 of the molar value.
assay-readout: pEC50

structure_string=Cc1cc(NC(=O)CS(=O)(=O)c2cn(Cc3ccccc3Cl)c3ccccc23)no1 observed_result="< 4.52"
